Field: IC50. Provide a value for each of the binders that follow.
- target: T1, rh integrin α4β7 (R&D Systems #5397-A30) (human, UniProt P13612 34-970; P26010 20-723)
- T1 construct: bought; coated on a nickel coated plate; also called immobilized α4β7; immobilized α4β7 integrin protein
- procedure-summary: competition ELISA vs MAdCAM-1
Bridge positions count the residues as written; N and C are the ends. Square brackets hold non-standard residues; d marks the D form. Phe(4-COOH) = N[C@@H](Cc1ccc(C(=O)O)cc1)C(=O)O; Phe(4-tBu) = CC(C)(C)c1ccc(C[C@H](N)C(=O)O)cc1; NMeR = CN[C@@H](CCCNC(=N)N)C(=O)O; hPhe = N[C@@H](CCc1ccccc1)C(=O)O; Pen = CC(C)(S)[C@H](N)C(=O)O

The following binders each have a reported value; give each one's IC50.
1. Ac-[Pen][NMeR]SDTL[Pen][Phe(4-tBu)]-OH (disulfide 1-7; SMILES CC(=O)N[C@@H]1C(=O)N(C)[C@@H](CCCNC(=N)N)C(=O)N[C@@H](CO)C(=O)N[C@@H](CC(=O)O)C(=O)N[C@@H]([C@@H](C)O)C(=O)N[C@@H](CC(C)C)C(=O)N[C@H](C(=O)N[C@@H](Cc2ccc(C(C)(C)C)cc2)C(=O)O)C(C)(C)SSC1(C)C) [SEQ ID NO: 151]
2. Ac-[Pen][NMeR]SDTL[Pen][Phe(4-COOH)]E[dK]-NH2 (disulfide 1-7; not fully specified (residue 10); printed as (Ac Pen N-Me-R S D T L Pen F(4-COOH) E k NH2)2 DIG, disulfide Pen-Pen; also: homodimer: two subunits joined by DIG linker) [SEQ ID NO: 129]
3. Ac-[Pen][NMeR]SDTL[Pen][hPhe]E[dK]-NH2 (disulfide 1-7; SMILES CC(=O)N[C@@H]1C(=O)N(C)[C@@H](CCCNC(=N)N)C(=O)N[C@@H](CO)C(=O)N[C@@H](CC(=O)O)C(=O)N[C@@H]([C@@H](C)O)C(=O)N[C@@H](CC(C)C)C(=O)N[C@H](C(=O)N[C@@H](CCc2ccccc2)C(=O)N[C@@H](CCC(=O)O)C(=O)N[C@H](CCCCN)C(N)=O)C(C)(C)SSC1(C)C) [SEQ ID NO: 19]

1. > 10 nM
2. ≤ 10 nM
3. > 10 nM

# credit: patent US20220162261A1
